target-of-assay: human epidermal growth factor receptor 2 (HER2), membrane-bound on cells (human, UniProt P04626 23-1255)
protocol-summary: cell-based or functional assay
metric: EC50 of cell kill, AU565, anti-kappa-ETA'-conjugated (µg/mL)
Could you give me the number in µg/mL? Just the number is fine.

Prompt: Param item = HuMab 084 (antibody, V domains shown, also called TH1014-084; PC1014-084) VH: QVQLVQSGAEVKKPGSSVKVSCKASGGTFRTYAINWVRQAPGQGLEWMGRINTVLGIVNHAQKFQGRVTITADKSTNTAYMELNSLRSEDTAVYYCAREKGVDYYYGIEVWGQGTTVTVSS VL: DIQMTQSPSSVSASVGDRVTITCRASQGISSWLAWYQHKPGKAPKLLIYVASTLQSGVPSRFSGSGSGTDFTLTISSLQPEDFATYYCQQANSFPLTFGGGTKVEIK ; retrieve measured EC50 of cell kill, AU565, anti-kappa-ETA'-conjugated.
Response: 0.027
